The compounds listed here are annotated with their IC50.
- Tested on: Plasmodium falciparum
- Measurement Description: Antimalarial activity against blood stage Plasmodium falciparum TM91C235 assessed as [3H]-hypoxanthine uptake after 24 hrs by scintillation counting
- Format: functional, organism-based

* CC(C)/N=C(\NC1=NC(=O)CN1C)Nc1ccc(Cl)c(Cl)c1 | > 5 µg/mL
* CC(C)N1CC(=O)N=C1N/C(=N\C(=O)C(C)(C)C)Nc1ccc(Cl)c(Cl)c1 | > 1.28 µg/mL
* CC(C)N1CC(=O)N=C1N/C(=N\C(=O)OC(C)(C)C)Nc1ccc(Cl)c(Cl)c1 | > 5 µg/mL

// below: IC50 requested for another compound
Let me know recorded IC50 for CC/N=C(\NC1=NC(=O)CN1c1ccc(Cl)c(Cl)c1)Nc1ccc(Cl)c(Cl)c1 , thanks.
> 5 µg/mL
